System: Hepatotoxicity;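 also: bilirubinemia hepatic side effect score drawn from the DILIps training data, a prediction system for drug-induced liver injury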; also: call rule not given here
*1 amine or outer side, *2 acyl side, *3 side chain or, on linkers, in order; H or OH if unused. Where a SMILES comes first, the peptide text is derived from it. Bridges are numbered along the chain shown (N, C = ends). Roman numbers before positions name the chains, in order. [ ]: non-standard residue; d: D form. Actinocin(9to1) = Cc1c2oc3c(C)ccc(C(=O)[*:1])c3nc-2c(C(=O)[*:2])c(N)c1=O; NMeV = CN[C@H](C(=O)O)C(C)C; Sar = CNCC(=O)O
endpoint.label: HepSE_bilirubinemia
Give only the figure.

Request: Returns the measured HepSE_bilirubinemia for the input compound. Input: C[C@@H]1C[C@H]2[C@@H]3C[C@H](F)C4=CC(=O)C=C[C@]4(C)[C@@]3(F)[C@@H](O)C[C@]2(C)[C@@]1(O)C(=O)CO [FLUMETHASONE]
Response: 0

Request: Could you share which HepSE_bilirubinemia value was measured for COc1ccccc1Oc1c(NS(=O)(=O)c2ccc(C(C)(C)C)cc2)nc(-c2ncccn2)nc1OCCO [BOSENTAN] ?
Response: 0

Request: Suppose we examine the compound CCNC(=O)[C@@H]1CCCN1C(=O)[C@H](CCCNC(=N)N)NC(=O)[C@H](CC(C)C)NC(=O)[C@@H](COC(C)(C)C)NC(=O)[C@H](Cc1ccc(O)cc1)NC(=O)[C@H](CO)NC(=O)[C@H](Cc1c[nH]c2ccccc12)NC(=O)[C@H](Cc1cnc[nH]1)NC(=O)[C@@H]1CCC(=O)N1 [BUSERELIN] ; what HepSE_bilirubinemia value has been reported?
Response: 0

Request: Using the record for COc1ccc(CC2c3cc(OC)c(OC)cc3CC[N+]2(C)CCC(=O)OCCCCCOC(=O)CC[N+]2(C)CCc3cc(OC)c(OC)cc3C2Cc2ccc(OC)c(OC)c2)cc1OC (stereo not given) , report its HepSE_bilirubinemia.
Response: 0

Request: Look up HepSE_bilirubinemia for this compound: CC(=O)OCC(=O)[C@@]12OC3(CCCC3)O[C@@H]1C[C@H]1[C@@H]3CCC4=CC(=O)C=C[C@]4(C)[C@@]3(F)[C@@H](O)C[C@@]12C [AMCINONIDE]
Response: 0

Request: So what does the record say about HepSE_bilirubinemia for Cc1onc(-c2c(Cl)cccc2Cl)c1C(=O)N[C@@H]1C(=O)N2[C@@H]1SC(C)(C)[C@@H]2C(=O)O [DICLOXACILLIN] ?
Response: 0

Request: Any idea what its HepSE_bilirubinemia is? The compound is Cc1ccc(S(=O)(=O)NC(=O)NN2CCCCCC2)cc1 [TOLAZAMIDE]
Response: 0

Request: Fill in the blank: the reported HepSE_bilirubinemia of CN1C2CCCC1CC(NC(=O)c1nn(C)c3ccccc13)C2 (stereo not given) [GRANISETRON] is ____.
Response: 1

Request: Data request, read-out HepSE_bilirubinemia, for Nc1nc(=O)[nH]cc1F [FLUCYTOSINE]
Response: 0

Request: Name the reported HepSE_bilirubinemia value associated with the compound Cc1c2oc3c(C)ccc(C(=O)N[C@@H]4C(=O)N[C@H](C(C)C)C(=O)N5CCC[C@H]5C(=O)N(C)CC(=O)N(C)[C@@H](C(C)C)C(=O)O[C@@H]4C)c3nc-2c(C(=O)N[C@@H]2C(=O)N[C@H](C(C)C)C(=O)N3CCC[C@H]3C(=O)N(C)CC(=O)N(C)[C@@H](C(C)C)C(=O)O[C@@H]2C)c(N)c1=O [DACTINOMYCIN] (I: T[dV]P[Sar][NMeV] / II: T[dV]P[Sar][NMeV]; ester I:1-I:C, II:1-II:C; linker I:N-II:N via Actinocin(9to1))
Response: 0

Request: # lookup: HepSE_bilirubinemia of CCN(CC)CC#CCOC(=O)C(O)(c1ccccc1)C1CCCCC1 (stereo not given) [OXYBUTYNIN]
Response: 0

Request: I'd like to know its HepSE_bilirubinemia. The compound in question is Cc1cc2c(s1)Nc1ccccc1N=C2N1CCN(C)CC1 [OLANZAPINE]
Response: 1

Request: Item under review: CN1CCN(C(=O)OC2c3nccnc3C(=O)N2c2ccc(Cl)cn2)CC1 (stereo not given) [ZOPICLONE] . Reported HepSE_bilirubinemia?
Response: 0

Request: Looking for the measured HepSE_bilirubinemia of Cn1c(=O)c2c(ncn2C)n(C)c1=O [CAFFEINE] , can you help?
Response: 0

Request: Give its HepSE_bilirubinemia value. Item: S=P(N1CC1)(N1CC1)N1CC1 [THIOTEPA]
Response: 1
